B1: tRNA (parent)
chain: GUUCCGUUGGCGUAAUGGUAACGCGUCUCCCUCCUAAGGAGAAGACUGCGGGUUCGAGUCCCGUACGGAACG

variants of: B1; assay: yeast fitness relative to wild type (ratio to wild type); higher = fitter; tRNA-Arg(CCU), competitive growth, 37 C, YPD
Fewer inactive variants are shown than the library holds.
property_measured: yeast fitness

Solved cases below.
G39A C46U G67A : 0.575
U32C G56C : 0.676
U19C G48A G58C C61A : ≤ 0.5
C24G C30G C31U U35A A36U G44A G63C : 0.86
C5U U8G A20G C34A : ≤ 0.5

Here is the next item to consider.
Query: Which yeast fitness value belongs to C11U A15C C27A G39C G63U U64A ?
Response: ≤ 0.5
